Molecular target: SARS-CoV-2 Omicron EG.5.1 RBD (SARS-CoV-2 Omicron EG.5.1, F490S)
Experiment: BLI
pKd: −log10 of the molar value.
observable: pKd

Query: pKd; subject: BD56-104 (antibody, V domains shown) VH: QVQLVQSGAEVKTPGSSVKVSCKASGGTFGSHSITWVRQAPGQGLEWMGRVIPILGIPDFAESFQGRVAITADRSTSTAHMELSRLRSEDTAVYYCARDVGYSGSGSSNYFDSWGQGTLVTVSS VL: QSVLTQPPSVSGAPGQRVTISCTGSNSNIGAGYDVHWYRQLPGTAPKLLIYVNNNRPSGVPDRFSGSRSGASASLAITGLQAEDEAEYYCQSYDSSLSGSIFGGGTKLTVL
> 8.35

Cited source for all entries: paper doi:10.64898/2025.12.19.695307
